Hello, the source for this data is the nanobody polyreactivity screen of Harvey et al. (2022), in case you need it.

assay: yeast display, Sf9 membrane polyspecificity reagent, FACS + sequencing; frameworks hold sequencing errors
Measurement type: polyreactivity (PSR sort gate)

[[record]]
macromolecule_sequence = "QVQLVESGGGLVQAGGSLRLSCAASGIIFYVYAMGWYRQAPGKERELVAAISSTSSTYADSVKGRFTISRDNAKNTVYLQMNSLKPEDTAVFYCNTDYSDGYPAFDYWGQGTQVTVSS"
test_value = "low polyreactivity"

[[record]]
macromolecule_sequence = "QVQLVESGGGLVQAGGSLRLSCGASGSTFYGYAMGWYRQAPGTEREVVAAISSGGSTYYADSVKGRFTISRDNAKNTVYLQMNSLKPEDTAVYYCDAVGYFWITNHKDYYWGQGTQVTVSS"
test_value = "high polyreactivity"

[[record]]
macromolecule_sequence = "QVQLVESGGGLVQAGGSLRLSCAASGSTFTVNDMGWYRQAPGKERELVAAITQRDGRTFYADSVKGRFTISRDNAKNTVYLQINSLKPEDTGVYYCAADYGWYTYGDYDYWGQGTQVTVSS"
test_value = "low polyreactivity"

[[record]]
macromolecule_sequence = "QVQLVESGGGLDQARGSLRLSCAASGSIFGENAMGWYRQAPGKERELVAAISTSGGTTYYADSVKGRFTISRDNAKNTVYLQMNSLKPEDTAVYYCAKPYTSFSPYDYWGQGTQVTVSS"
test_value = "low polyreactivity"

[[record]]
macromolecule_sequence = "QVQLVESGGGLVQAGGRHRLSCAASGRTFWGYGMGWYRQPPGKDRELVATISSGGSTYYEDSVKGRFTISRDNAMNTVYLQMNSLKPEDTAVYYCAARPPRSYWRYQSDYWGLGTQVTVSS"
test_value = "high polyreactivity"


The reported value for `QVQLVESGGGLVQAGGSLSLSCAASGRTFVRYAMGWYRQAPGKERELVAAISRNAGRTYYADSVKGRFTISRDNAKNTVYLQMNSLKPEDTAVYYCAAPGRNLGTGFYYWGQGTQVTVSS` in terms of polyreactivity (PSR sort gate) is high polyreactivity

The reported value for `QGQLVESGAGLVKAGGSLRISCAASGYTFPSNARAWYRHAPGTPRQLVAAISSGGRTNYADSLKGRFTISRDNAKNTVYLQMNRLKPEDTAVYNCNADGGPGYPSAYDYWVQGTQVTVSS` in terms of polyreactivity (PSR sort gate) is low polyreactivity

The reported value for `QVQLVESGGGLVQAGGSLRLSCAASGSIFKGYAMGWYRQAPGKERELVAAISRTGGSTYYADSVKGRFTISRDYAKNTVYLQMNSLKPEDTAVYYCAAYSASTYDSWGQGTQVTVSS` in terms of polyreactivity (PSR sort gate) is high polyreactivity

The reported value for `QVQLVESGGGLVQAGGSLRLSCAASGRIFKTYAMGWYRQAPGKERELVAAITWDVVRTYYADSVKGRFTISRDNAKNTVYLQMNSLKPEETAVYYCAAEGIRRSQRFNYWGQGTQVTVSS` in terms of polyreactivity (PSR sort gate) is high polyreactivity

The reported value for `QVQLVESGGGLVQAGGSLRLSCAASGSIFQYNAMGWYRPAPGKERELVAAISSRGGITYYADSVKGRFTISRDNAKNTVYLQMNSMKPEDTAVYDCAAVAYYSEVRWYEYWGQGTQVTVSS` in terms of polyreactivity (PSR sort gate) is high polyreactivity

The reported value for `QLQLVESGGGLVQAGGSIRLSCAASGSIFYRYAKGWNRQAPGKESELVAAISSRGGSKYYADSVKARFTISRDNAKNTVYLQMNSLKPEDTAVYYCAARSGGSGGTYGYWGQGPQVTVSS` in terms of polyreactivity (PSR sort gate) is high polyreactivity
